Assay: qHTS Assay for Lipid Storage Modulators (AID 1519)
Conditions: Drosophila S3 cells, BODIPY lipid droplet/cell ratio, laser cytometry; measured here: lipid channel max response; cells loaded with oleic acid
Results filed as inconclusive are left out.
Field: max response. Provide a value for each of the compounds that follow.
One number for each entry, in %.

Below are worked cases with known answers.
compound=O=C(O)c1nn(Cc2ccc(Cl)cc2Cl)c2ccccc12 measurement=43.5
compound=Clc1ccc(CO/N=C(\Cn2ccnc2)c2ccc(Cl)cc2Cl)c(Cl)c1 measurement=5.32
compound=Cc1ccc(N=CN(C)C=Nc2ccc(C)cc2C)c(C)c1 measurement=26.2

# per-item lookup of max response; items listed below
1. C[C@H](N)[C@H](O)c1ccc(O)c(O)c1
2. O=C(NC(=O)c1c(F)cccc1F)Nc1cc(Cl)c(OC(F)(F)C(F)C(F)(F)F)cc1Cl (stereo not drawn)
3. Clc1ccc(CSC(Cn2ccnc2)c2ccc(Cl)cc2Cl)cc1 (stereo not drawn)
4. Clc1ccc(C(OCCN2CCCCC2)c2ccccc2)cc1 (stereo not drawn)
5. CC[n+]1c(-c2ccccc2)c2cc(N)ccc2c2ccc(N)cc21
6. CCCCCCCCCCCCCCCC[n+]1ccccc1

Response:
1. -13.5
2. -17.8
3. 12.4
4. 25.9
5. 6.23
6. -114

====

Assay: MultiTox-Fluor Cytotoxicity Assay - LYMP1-002 - Live Cells (AID 955);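 note: cells exposed to compound for 16 hours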; note: potency is the fitted concentration of half-maximal effect
Conditions: LYMP1-002 lymphoblastoid live-cell protease fluorescence viability; series mostly up to 46.1 µM
Records with an inconclusive call do not appear. The source made the active and inactive calls. Calls come from the whole dose curve; as a rule, active = well fitted cell-killing curve with a large enough effect; inconclusive = small, poorly fitted or top-dose-only effect, or effect the other way; inactive = flat fitted curve, though single readings scatter.
Property name: Potency

compound_string=CN(C)C(=S)SSC(=S)N(C)C measurement="10 µM (active)"
compound_string=O=C(CCl)c1ccc(Cl)cc1Cl measurement="7.94 µM (active)"
compound_string=CNC(=O)Oc1cccc2ccccc12 measurement=inactive
compound_string=Oc1c(Br)cc(Br)cc1Br measurement=inactive

====

Experiment: qHTS of pediatric cancer cell lines to identify multiple opportunities for drug repurposing: Primary screen for DAOY cells (AID 1347090); note: nearly all actives have a fitted effect of over 55% in size
Conditions: DAOY medulloblastoma viability, CellTiter-Glo luminescence, 48 h; series mostly up to 46 µM
Records with an inconclusive call do not appear. The source made the active and inactive calls. The call rests on the fitted dose curve; in most records, active means well fitted cell-killing curve with a large enough effect; inconclusive means small, poorly fitted or top-dose-only effect; inactive means flat fitted curve, though single readings scatter.
Your response should consist of one outcome taken from TRUE (active), FALSE (inactive)

Some solved entries appear below for comparison.
compound=COc1ccc2c(C(=O)c3ccc(Cl)cc3)c(C)n(CC(=O)O)c2c1 assigned_label=TRUE
compound="C=CCOC(Cn1ccnc1)c1ccc(Cl)cc1Cl (stereo unspecified)" assigned_label=FALSE
compound=Cc1cccc(Cc2cnc[nH]2)c1C assigned_label=FALSE
compound=Oc1ccc2[nH]cc(CCCCN3CC=C(c4ccccc4)CC3)c2c1 assigned_label=FALSE
compound=Cc1ccc(N=CN(C)C=Nc2ccc(C)cc2C)c(C)c1 assigned_label=FALSE

Please turn your attention to the following entry.
Prompt: Just curious, what result did c1ccc2nc(N3CCNCC3)ccc2c1 get here?
Response: FALSE

====

Tested on: CP203
Assay: qHTS profiling for inhibitors of Plasmodium falciparum proliferation (AID 504749); note: nearly all actives have a fitted effect of over 60% in size
Settings: P. falciparum in erythrocytes, SYBR Green DNA, 72 h; series mostly up to 28.7 µM
Inconclusive results are not listed. The source made the active and inactive calls. The call rests on the fitted dose curve; in most records, active means well fitted inhibition curve with a large enough effect; inconclusive means small, poorly fitted or top-dose-only effect; inactive means flat fitted curve, though single readings scatter.
Your response should consist of one outcome taken from True for active, False for inactive

compound="CCOC(=O)NC(O)C(Cl)(Cl)Cl (configuration not stated)" assigned_label=False
compound="CCC1(c2ccccc2)CCC(=O)NC1=O (configuration not stated)" assigned_label=False
compound="CC(C)NCC(O)c1ccc(N)c(C#N)c1 (configuration not stated)" assigned_label=False
compound=Cc1ncc2n1-c1ccc(Cl)cc1C(c1ccccc1F)=NC2 assigned_label=False
compound="C=CCOC(Cn1ccnc1)c1ccc(Cl)cc1Cl (configuration not stated)" assigned_label=True

Please turn your attention to the following entry.
Prompt: Just curious, what result did CCC(=O)O[C@H]1CC[C@H]2[C@@H]3CCC4=CC(=O)CC[C@]4(C)[C@H]3CC[C@]12C get here?
Response: False
